# method summary: Clearance in rat at 0.3 mg/kg/hr, iv
# Format: ADME, organism-based
# Design: route intravenous
# condition info: in vivo
property measured: clearance
Write the numeric value and follow it with the unit.

In the examples that follow, each entry is paired with its recorded clearance.
INSERT INTO results (compound_smiles, recorded_value) VALUES
  ('CCN(CC)CCOc1ccc(N(C)C(=O)c2ccc(-c3ccccc3)cc2)cc1OC', '51 mL/min/kg'),
  ('CCN(CC)CCOc1ccc(N(C)C(=O)c2ccc(-c3ccc(C(F)(F)F)cc3)cc2)cc1OC', '16 mL/min/kg');

**Query** For the compound COc1cc(N(C)C(=O)c2ccc(-c3ccccc3)cc2)ccc1OCCN1CCCC1 , report clearance.
**Result** 57 mL/min/kg

**Query** For the compound COc1cc(NC(=O)c2ccc(-c3ccccc3)cc2)ccc1OCCN(C(C)C)C(C)C , give its measured clearance value.
**Result** 67 mL/min/kg

----------
# method summary: Solubility in water
# Format: physicochemical
property measured: solubility

**Query** Return solubility (reported value) for this compound: COc1cc(N(C)C(=O)c2ccc(-c3ccccc3)cc2)ccc1OCCN(C(C)C)C(C)C
**Result** > 500 µg/mL

----------
# Test system: Liver microsomes
# method summary: Intrinsic clearance in rat liver microsome
# Format: ADME
property measured: CL (mL/min/g)
Reply with just the number (in mL/min/g).

Some solved entries appear below for comparison.
INSERT INTO assay_data (compound_smiles, target_system, property_measured, recorded_value) VALUES
  ('CCN(CC)CCOc1ccc(N(C)C(=O)c2ccc(-c3ccccc3)cc2)cc1OC', 'Liver microsomes', 'CL', 5),
  ('COc1cc(NC(=O)c2ccc(-c3ccccc3)cc2)ccc1OCCN(C(C)C)C(C)C', 'Liver microsomes', 'CL', 9),
  ('CCN(CC)CCOc1ccc(N(C)C(=O)c2ccc(-c3ccc(C(F)(F)F)cc3)cc2)cc1OC', 'Liver microsomes', 'CL', 4);

**Query** State, in one line, measured CL of COc1cc(N(C)C(=O)c2ccc(-c3ccccc3)cc2)ccc1OCCN(C(C)C)C(C)C
**Result** 19

**Query** Read the entry COc1cc(NC(=O)c2ccc(-c3ccccc3)cc2)ccc1OCCN1CCCC1 and write its reported CL.
**Result** 2

**Query** Entry CCN(CC)CCOc1ccc(NC(=O)c2ccc(-c3ccccc3)cc2)cc1OC needs its CL filled in; supply it.
**Result** 4

**Query** Determine its reported CL: COc1cc(N(C)C(=O)c2ccc(-c3ccccc3)cc2)ccc1OCCN1CCCC1
**Result** 2

----------
# method summary: Solubility in artificial cerebrospinal fluid
# Type: physicochemical
property measured: solubility

**Query** Tell me its solubility given COc1cc(N(C)C(=O)c2ccc(-c3ccccc3)cc2)ccc1OCCN(C(C)C)C(C)C as the entry.
**Result** > 500 µg/mL

----------
# method summary: AUC in Sprague-Dawley rat
# Assay type: ADME, organism-based
# condition info: plasma
property measured: AUC (µM·h)
State just the number; it will be interpreted in µM·h.

**Query** Assign AUC to the following record: CCN(CC)CCOc1ccc(N(C)C(=O)c2ccc(-c3ccc(C(F)(F)F)cc3)cc2)cc1OC
**Result** 2.37

----------
# target system: Melanin-concentrating hormone receptor 1 (Homo sapiens)
property measured: Ki (nM)
Supply the numeric figure in nM, leaving out any unit text.

INSERT INTO results (molecule, recorded_value) VALUES
  ('CCN(CC)CCOc1ccc(NC(=O)c2ccc(-c3ccccc3)cc2)cc1C(C)O (centres undefined)', 251),
  ('COc1cc(N(C)C(=O)c2cccc(Oc3ccccc3)c2)ccc1OCCN(C(C)C)C(C)C', 398);

Now look at this entry.
**Query** Provide measured Ki value, entry: CCN(CC)CCOc1ccc(NC(=O)c2ccc(-c3ccccc3)cc2)cc1C(C)=O
**Result** 31.6

----------
# target system: Melanin-concentrating hormone receptor 1 (Homo sapiens, UniProt Q99705)
# Sequence (Q99705 whole entry): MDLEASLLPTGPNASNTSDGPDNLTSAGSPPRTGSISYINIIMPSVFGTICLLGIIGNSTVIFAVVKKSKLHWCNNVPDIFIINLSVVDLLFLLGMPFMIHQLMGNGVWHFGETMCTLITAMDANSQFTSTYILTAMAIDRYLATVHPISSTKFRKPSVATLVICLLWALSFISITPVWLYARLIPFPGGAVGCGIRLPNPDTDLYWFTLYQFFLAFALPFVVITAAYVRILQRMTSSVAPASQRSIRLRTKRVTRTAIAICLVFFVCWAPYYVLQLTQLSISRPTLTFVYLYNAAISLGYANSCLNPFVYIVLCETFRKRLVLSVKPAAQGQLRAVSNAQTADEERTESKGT
// reported Ki for each item listed

Please review the entries below; each comes with its answer.
INSERT INTO measurements (compound_smiles, property_measured, recorded_value) VALUES
  ('COc1cc(NC(=O)c2ccc(-c3ccccc3)cc2)ccc1OCCN1CCCCC1', 'Ki', '39.8 nM'),
  ('COc1cc(NC(=O)c2ccc(-c3ccccc3)cc2)ccc1OCCN(C)C', 'Ki', '50.1 nM'),
  ('COc1cc(N(C)S(=O)(=O)c2ccc(-c3ccccc3)cc2)ccc1OCCN(C(C)C)C(C)C', 'Ki', '> 10000 nM'),
  ('COc1cc(N(C)C(=O)c2ccc(Cc3ccccc3)cc2)ccc1OCCN(C(C)C)C(C)C', 'Ki', '79.4 nM'),
  ('COc1cc(N(C)C(=O)c2ccc(-c3ccccc3)cc2)ccc1OCCN(C(C)C)C(C)C', 'Ki', '15.8 nM');

# input for lookup
**Query** Supply measured Ki of COc1cc(NC(=O)c2ccc(-c3ccccc3)cc2)ccc1OCCN(C)Cc1ccccc1 in your reply.
**Result** 50.1 nM

----------
Consider molecules characterized by their pKi with Melanin-concentrating hormone receptor 1 (Homo sapiens, UniProt Q99705).
Notebook: values listed as pKi are -log10 of the concentration (mol/L).

These recorded examples may help you get a feel for the data.
INSERT INTO measurements (compound_smiles, target_system, property_measured, recorded_value) VALUES
  ('COc1cc(NC(=O)c2ccc(-c3ccccc3C)cc2)ccc1OCCN(C(C)C)C(C)C', 'Melanin-concentrating hormone receptor 1 (Homo sapiens, UniProt Q99705)', 'pKi', 7.40),
  ('COc1cc(NC(=O)c2cccc(Oc3ccccc3)c2)ccc1OCCN(C(C)C)C(C)C', 'Melanin-concentrating hormone receptor 1 (Homo sapiens, UniProt Q99705)', 'pKi', 7.10);

Continue with the molecule presented below.
**Query** Give measured pKi for COc1cc(NC(=O)c2ccc(-c3ccccc3)c(C)c2)ccc1OCCN(C(C)C)C(C)C (Melanin-concentrating hormone receptor 1 (Homo sapiens, UniProt Q99705)).
**Result** 6.80
